system: Mus musculus; test: Immunostimulatory activity in C57BL/6 mouse assessed as IFN-gamma level in serum at 100 ug/kg, ip measured after 24 hrs by ELISA; type: functional
Active and inactive are the calls of the source. No cut-off for these calls is given here.
Endpoint name: Activity

A selection of reference data follows.
CCCCCCCCCCCCCCCCCCCCCCCCCC(=O)N[C@@H](CO[C@H]1O[C@H](Cn2cc(C(=O)N[C@@H](CO)C(=O)OC)nn2)[C@H](O)[C@H](O)[C@H]1O)[C@H](O)[C@H](O)CCCCCCCCCCCCCC = 4755 pg/mL
CCCCCCCCCCCCCCCCCCCCCCCCCC(=O)N[C@@H](CO[C@H]1O[C@H](Cn2cc(C(=O)N[C@@H](CCCCN)C(=O)OC)nn2)[C@H](O)[C@H](O)[C@H]1O)[C@H](O)[C@H](O)CCCCCCCCCCCCCC = 3886 pg/mL
CCCCCCCCCCCCCCCCCCCCCCCCCC(=O)N[C@@H](CO[C@H]1O[C@H](Cn2cc(C(=O)NCC(=O)OC)nn2)[C@H](O)[C@H](O)[C@H]1O)[C@H](O)[C@H](O)CCCCCCCCCCCCCC = Active
CCCCCCCCCCCCCCCCCCCCCCCCCC(=O)N[C@@H](CO[C@H]1O[C@H](CO)[C@H](O)[C@H](O)[C@H]1O)[C@H](O)[C@H](O)CCCCCCCCCCCCCC = 2925 pg/mL

*Q* Given the molecule CCCCCCCCCCCCCCCCCCCCCCCCCC(=O)N[C@@H](CO[C@H]1O[C@H](Cn2cc(C(=O)N[C@@H](Cc3ccccc3)C(=O)OC)nn2)[C@H](O)[C@H](O)[C@H]1O)[C@H](O)[C@H](O)CCCCCCCCCCCCCC , what is its reported Activity?
*A* Active

====

biological target: Antigen-presenting glycoprotein CD1d (Mus musculus) (UniProt P11609+P11610); assay: Binding affinity to CD1d in C57BL/6 mouse splenocytes assessed as iNKT-cell stimulating activity by measuring IFN-gamma/IL-4 ratio at 0.01 uM incubated for 48 hrs by ELISA; format: cell-based; details: in the assay text read “IFN-gamma/IL-4 ratio” for “IFN-gamma/IL-6 ratio”
Below: a set of entries, each annotated with reported Ratio.
Answer as a number with no unit attached.

Example entries begin here.
CCCCCCCCCCCCCCCCCCCCCCCCCC(=O)N[C@@H](CO[C@H]1O[C@H](Cn2cc(C(=O)N[C@@H](Cc3ccccc3)C(=O)OC)nn2)[C@H](O)[C@H](O)[C@H]1O)[C@H](O)[C@H](O)CCCCCCCCCCCCCC = 3.3
CCCCCCCCCCCCCCCCCCCCCCCCCC(=O)N[C@@H](CO[C@H]1O[C@H](Cn2cc(C(=O)NCC(=O)OC)nn2)[C@H](O)[C@H](O)[C@H]1O)[C@H](O)[C@H](O)CCCCCCCCCCCCCC = 2.1
CCCCCCCCCCCCCCCCCCCCCCCCCC(=O)N[C@@H](CO[C@H]1O[C@H](Cn2cc(C(=O)N[C@@H](CCCCN)C(=O)OC)nn2)[C@H](O)[C@H](O)[C@H]1O)[C@H](O)[C@H](O)CCCCCCCCCCCCCC = 4.9

As a next step, examine the compound that follows.
*Q* What value of measured Ratio is listed for CCCCCCCCCCCCCCCCCCCCCCCCCC(=O)N[C@@H](CO[C@H]1O[C@H](Cn2cc(C(=O)N[C@@H](CO)C(=O)OC)nn2)[C@H](O)[C@H](O)[C@H]1O)[C@H](O)[C@H](O)CCCCCCCCCCCCCC ?
*A* 1.7
